target: T1, V domain of human CD33 (human, UniProt P20138 18-139, limits assumed); test: SPR, Fab captured, 37C;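 also: biacore 8K surface plasmon resonance with Fabs held on an amine-coupled anti-Fab antibody surface, soluble monomeric CD33 domain injected as analyte, double-referenced 1:1 binding fit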
T1 construct: recombinant, fully glycosylated V domain; also called Human CD33 V domain
readout_type: kon (M⁻¹ s⁻¹)
Enter your answer as a number in M⁻¹ s⁻¹; do not include the unit.

INSERT INTO measurements (binder, readout_type, measured_number) VALUES
  ('ADI-11825 Fab (Fab, V domains shown, Fab fragment; also called Ab25) VH: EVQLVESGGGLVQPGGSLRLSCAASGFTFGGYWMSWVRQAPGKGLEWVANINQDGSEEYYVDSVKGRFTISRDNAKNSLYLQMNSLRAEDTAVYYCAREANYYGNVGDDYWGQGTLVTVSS VL: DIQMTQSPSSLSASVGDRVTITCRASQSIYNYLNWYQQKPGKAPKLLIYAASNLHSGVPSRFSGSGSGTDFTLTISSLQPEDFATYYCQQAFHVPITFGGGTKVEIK', 'kon', '4.93e+06');

For ADI-11830 Fab (Fab, V domains shown, Fab fragment; also called Ab9) VH: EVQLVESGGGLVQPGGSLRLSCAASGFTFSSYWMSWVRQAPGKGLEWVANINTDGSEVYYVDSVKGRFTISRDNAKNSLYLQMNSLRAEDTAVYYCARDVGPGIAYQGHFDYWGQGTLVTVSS VL: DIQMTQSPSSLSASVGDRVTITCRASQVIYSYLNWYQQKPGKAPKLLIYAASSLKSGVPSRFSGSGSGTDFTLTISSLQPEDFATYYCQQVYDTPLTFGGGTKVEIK the binder record lists kon as 6.67e+06

Record ADI-11835 Fab (Fab, V domains shown, Fab fragment; also called Ab10; I35) VH: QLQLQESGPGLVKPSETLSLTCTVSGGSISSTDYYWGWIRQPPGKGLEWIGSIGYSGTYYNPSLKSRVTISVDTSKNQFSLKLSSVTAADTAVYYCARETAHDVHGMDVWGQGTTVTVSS VL: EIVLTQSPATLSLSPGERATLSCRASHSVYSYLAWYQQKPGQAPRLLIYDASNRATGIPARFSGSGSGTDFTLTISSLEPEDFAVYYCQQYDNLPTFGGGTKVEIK . Reported kon: 7.6e+06
